# Test system: T1, human ICOS, full-length, expressed on transfected Expi293 cells (human, UniProt Q9Y6W8 21-199)
# T1 construct: whole, on cells
# T1 sequence (looked up): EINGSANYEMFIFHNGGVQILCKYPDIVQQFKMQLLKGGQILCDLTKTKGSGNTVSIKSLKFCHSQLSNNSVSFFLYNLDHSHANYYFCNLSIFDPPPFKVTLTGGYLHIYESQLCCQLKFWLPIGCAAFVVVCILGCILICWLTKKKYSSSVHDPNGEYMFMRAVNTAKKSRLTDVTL
# Measurement protocol: flow cytometry, 100 nM, Expi293 cells with human ICOS
Value type: MFI ratio to WT (ΔWT) (fold)
Write the answer as a number in fold, unit excluded.

Binder: variant ICOSL IgV-Fc fusion N52L/N57V (Fc fusion) DTQEKEVRAMVGSDVELSCACPEGSRFDLNDVYVYWQTSESKTVVTYHIPQLSSLEVVDSRYRNRALMSPAGMLRGDFSLRLFNVTPQDEQKFHCLVLSQSLGFQEVLSVEVTLHVAANFSVGSGGGGSEPKSSDKTHTCPPCPAPEAEGAPSVFLFPPKPKDTLMISRTPEVTCVVVDVSHEDPEVKFNWYVDGVEVHNAKTKPREEQYNSTYRVVSVLTVLHQDWLNGKEYKCKVSNKALPAPIEKTISKAKGQPREPQVYTLPPSREEMTKNQVSLTCLVKGFYPSDIAVEWESNGQPENNYKTTPPVLDSDGSFFLYSKLTVDKSRWQQGNVFSCSVMHEALHNHYTQKSLSLSPG
Value type: MFI ratio to WT (ΔWT)
Unit: fold
Test value: 1.21

Query string: # return recorded MFI ratio to WT (ΔWT) for input variant ICOSL IgV-Fc fusion N52T/N57H/Q100A (Fc fusion) DTQEKEVRAMVGSDVELSCACPEGSRFDLNDVYVYWQTSESKTVVTYHIPQTSSLEHVDSRYRNRALMSPAGMLRGDFSLRLFNVTPQDEQKFHCLVLSASLGFQEVLSVEVTLHVAANFSVGSGGGGSEPKSSDKTHTCPPCPAPEAEGAPSVFLFPPKPKDTLMISRTPEVTCVVVDVSHEDPEVKFNWYVDGVEVHNAKTKPREEQYNSTYRVVSVLTVLHQDWLNGKEYKCKVSNKALPAPIEKTISKAKGQPREPQVYTLPPSREEMTKNQVSLTCLVKGFYPSDIAVEWESNGQPENNYKTTPPVLDSDGSFFLYSKLTVDKSRWQQGNVFSCSVMHEALHNHYTQKSLSLSPG
Result string: 1.04
